# Target or test system: T1, human LAG3 expressed on cells (human, UniProt P18627 23-525)
# T1 construct: whole, on cells
# T1 sequence (looked up): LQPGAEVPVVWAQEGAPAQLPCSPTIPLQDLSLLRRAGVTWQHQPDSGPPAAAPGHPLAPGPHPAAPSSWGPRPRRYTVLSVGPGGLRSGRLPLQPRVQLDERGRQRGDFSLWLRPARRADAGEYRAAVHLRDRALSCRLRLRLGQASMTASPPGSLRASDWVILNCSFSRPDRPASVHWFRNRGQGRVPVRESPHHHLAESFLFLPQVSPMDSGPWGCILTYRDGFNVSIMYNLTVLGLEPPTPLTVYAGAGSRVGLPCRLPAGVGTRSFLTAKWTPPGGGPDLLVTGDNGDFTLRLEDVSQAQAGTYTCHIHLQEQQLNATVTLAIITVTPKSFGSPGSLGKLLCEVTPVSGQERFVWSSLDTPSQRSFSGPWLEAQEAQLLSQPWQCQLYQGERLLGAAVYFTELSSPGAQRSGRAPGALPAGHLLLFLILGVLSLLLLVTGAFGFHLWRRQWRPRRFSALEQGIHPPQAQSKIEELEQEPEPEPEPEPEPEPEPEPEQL
# Assay comment: FACS, 293T-hLAG3 cells
Assay readout: FACS signal at 44.445 nM

>>> measured_result("sdAb No. 25 (VHH, Fc of the tested form not described; also called sdAb 25; sdAb #25; not shown: Fc part implied by anti-human Fc capture and anti-human IgG Fc detection) VHH: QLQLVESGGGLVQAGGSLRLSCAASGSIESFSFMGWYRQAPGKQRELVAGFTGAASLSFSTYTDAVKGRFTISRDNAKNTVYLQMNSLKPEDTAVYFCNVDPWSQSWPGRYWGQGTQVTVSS")
2540
>>> measured_result("sdAb No. 27 (VHH, Fc of the tested form not described; also called sdAb 27; not shown: Fc part implied by anti-human Fc capture and anti-human IgG Fc detection) VHH: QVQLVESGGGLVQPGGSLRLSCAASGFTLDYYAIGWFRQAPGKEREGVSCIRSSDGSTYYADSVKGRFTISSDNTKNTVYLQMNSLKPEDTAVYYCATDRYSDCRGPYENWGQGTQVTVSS")
4490
>>> measured_result("sdAb No. 25-B7 (VHH, Humanized sdAb No. 25; not shown: Fc part implied by anti-human IgG Fc detection) VHH: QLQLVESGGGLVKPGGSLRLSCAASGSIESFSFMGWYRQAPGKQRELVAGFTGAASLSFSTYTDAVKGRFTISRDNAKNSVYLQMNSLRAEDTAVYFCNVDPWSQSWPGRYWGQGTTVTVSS")
2480
>>> measured_result("sdAb No. 27-H1B3 (VHH, Humanized sdAb No. 27-H1; not shown: Fc part implied by anti-human IgG Fc detection) VHH: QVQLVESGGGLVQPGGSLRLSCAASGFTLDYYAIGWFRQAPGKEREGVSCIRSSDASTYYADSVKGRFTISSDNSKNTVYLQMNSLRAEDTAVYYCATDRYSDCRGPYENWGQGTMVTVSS")
4620
